# system-tested: CBL-B (Homo sapiens)
# Construct: GST
# assay-remarks: CBL-B TR-FRET IC50 screening (E1/E2 ubiquitination, Biotin-Ubiquitin, Anti GST-Tb donor / Streptavidin-d2 acceptor)
# Type: biochemical
# condition-summary: CBL-B 10 nM final; 11-point titration from 100 uM; binned A-F; read-out: CBL-B TR-FRET activity IC50
Entries annotated with measured IC50

The examples below pair each entry with its known result.
| molecule | system-tested | result-type | test-result |
| --- | --- | --- | --- |
| CN1CC=C(c2cc(C(F)(F)F)c3cn(-c4cccc(C5(Cc6nncn6C)COC5)c4)c(=O)n3c2)C1 [Compound 78] | CBL-B (Homo sapiens) | IC50 | < 100 nM |
| CN1C2CCC1CN(c1cc(C(F)(F)F)c3cn(-c4cccc([C@H](c5nncn5C)C5CCC5)c4)c(=O)n3c1)C2 [Compound 374] | CBL-B (Homo sapiens) | IC50 | 301 to 1000 nM |
| CN1CCC(c2cc(C(F)(F)F)c3cn(-c4cccc(C5(Cc6nncn6C)COC5)c4)c(=O)n3c2)C1 (stereo not shown) [Compound 83] | CBL-B (Homo sapiens) | IC50 | > 10000 nM |
| C[C@H]1CCCCN(Cc2cc(C(F)(F)F)c3cn(-c4cccc([C@H](c5nncn5C)C5CCC5)c4)c(=O)n3c2)C1 (single isomer, unassigned) [Compound 273] | CBL-B (Homo sapiens) | IC50 | < 100 nM |

IN: Quick check: IC50 on CBL-B (Homo sapiens), item Cn1cnnc1C(F)(F)[C@](C)(F)c1cccc(-n2cc3c(C(F)(F)F)cc(CN4CCC(F)(F)C4)cn3c2=O)c1 [Compound 35] ?
OUT: 3000 to 10000 nM

IN: Quick check: IC50 on CBL-B (Homo sapiens), item C[C@H]1CCCN(Cc2cc(C(F)(F)F)c3cn(-c4cccc(C5(c6nncs6)CC6(CC6)C5)c4)c(=O)n3c2)C1 [Compound 311] ?
OUT: > 10000 nM

IN: Quick check: IC50 on CBL-B (Homo sapiens), item C[C@H]1CCCN(Cc2cc(C(F)(F)F)c3cn(-c4cc(C#N)cc(C5(Cc6nncn6C)COC5)c4)c(=O)n3c2)C1 [Compound 183] ?
OUT: < 100 nM

IN: Quick check: IC50 on CBL-B (Homo sapiens), item CO[C@@H]1CCCN(Cc2cc(C(F)(F)F)c3cn(-c4cccc([C@H](c5nncn5C)C5CCC5)c4)c(=O)n3c2)C1 [Compound 251] ?
OUT: < 100 nM

IN: Quick check: IC50 on CBL-B (Homo sapiens), item CC(Cc1nncn1C)c1cccc(-n2cc3c(C(F)(F)F)cccn3c2=O)c1 (stereo not shown) [Compound 1] ?
OUT: 301 to 1000 nM

====

# system-tested: CBL-B (Homo sapiens)
# Construct: GST
# assay-remarks: CBL-B TR-FRET IC50 screening (E1/E2 ubiquitination, Biotin-Ubiquitin, Anti GST-Tb donor / Streptavidin-d2 acceptor)
# Assay type: biochemical
# condition-summary: second part of Table 2 (head 'Patent Cmpd No / Updated Activity'); same CBL-B TR-FRET IC50 bins A-F; read-out: Updated Activity
pIC50: −log10 of the molar value.
result-type: pIC50

The examples below pair each entry with its known result.
| compound | pIC50 |
| --- | --- |
| C[C@H]1CCCN(Cc2cc(C(F)(F)F)c3cn(-c4cccc([C@H](c5nncn5C5CC5)C5CCC5)c4)c(=O)n3c2)C1 (single isomer, unassigned) | < 5.00 |
| C[C@@H]1CCCN(Cc2cc(C(F)(F)F)c3cn(-c4cccc(C5(Cc6nncn6C)COC5)c4)c(=O)n3c2)C1 | > 7.00 |

Now look at this entry.
IN: Quick check: pIC50 on CBL-B (Homo sapiens), item CO[C@H]1C[C@H]([C@@H](c2cccc(-n3cc4c(C(F)(F)F)cc(CN5CCC[C@H](C)C5)cn4c3=O)c2)c2nncn2C)C1 (single isomer, unassigned) ?
OUT: > 7.00

====

# system-tested: CBL-B (Homo sapiens, UniProt Q13191)
# Construct: GST
# Sequence (Q13191 whole entry): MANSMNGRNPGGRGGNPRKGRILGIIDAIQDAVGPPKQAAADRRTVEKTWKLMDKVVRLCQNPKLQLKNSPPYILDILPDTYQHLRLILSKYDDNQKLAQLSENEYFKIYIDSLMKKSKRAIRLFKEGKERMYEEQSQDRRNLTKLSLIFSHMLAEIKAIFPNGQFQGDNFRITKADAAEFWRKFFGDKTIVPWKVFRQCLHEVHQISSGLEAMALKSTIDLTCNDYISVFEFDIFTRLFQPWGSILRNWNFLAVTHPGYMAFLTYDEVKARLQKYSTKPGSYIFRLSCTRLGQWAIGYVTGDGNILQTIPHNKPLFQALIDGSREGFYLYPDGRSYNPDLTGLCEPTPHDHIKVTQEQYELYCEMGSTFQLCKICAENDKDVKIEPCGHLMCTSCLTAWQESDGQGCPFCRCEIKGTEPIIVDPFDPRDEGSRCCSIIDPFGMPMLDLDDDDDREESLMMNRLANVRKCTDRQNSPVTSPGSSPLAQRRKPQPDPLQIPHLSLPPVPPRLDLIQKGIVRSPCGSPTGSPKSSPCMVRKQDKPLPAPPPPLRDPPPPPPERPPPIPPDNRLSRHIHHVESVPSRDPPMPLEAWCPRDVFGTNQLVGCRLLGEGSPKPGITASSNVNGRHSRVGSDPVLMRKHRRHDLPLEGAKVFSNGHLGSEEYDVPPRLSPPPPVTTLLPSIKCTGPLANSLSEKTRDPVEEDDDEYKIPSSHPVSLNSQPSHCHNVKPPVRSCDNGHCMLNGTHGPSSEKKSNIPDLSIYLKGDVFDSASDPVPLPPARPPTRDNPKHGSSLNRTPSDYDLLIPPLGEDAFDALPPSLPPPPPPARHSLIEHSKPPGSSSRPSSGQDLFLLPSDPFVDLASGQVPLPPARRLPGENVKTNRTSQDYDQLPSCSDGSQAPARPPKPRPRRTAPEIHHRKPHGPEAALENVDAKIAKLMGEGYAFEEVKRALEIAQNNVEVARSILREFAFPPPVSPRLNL
# assay-remarks: CBL-B TR-FRET IC50 screening (E1/E2 ubiquitination, Biotin-Ubiquitin, Anti GST-Tb donor / Streptavidin-d2 acceptor)
# Assay type: biochemical
# condition-summary: CBL-B 10 nM final; 11-point titration from 100 uM; binned A-F; read-out: CBL-B TR-FRET activity IC50
result-type: IC50

The examples below pair each entry with its known result.
| molecule | IC50 |
| --- | --- |
| C[C@H](c1cc(C(F)(F)F)c2cn(-c3cccc(C4([C@H](F)c5nncn5C)COC4)c3)c(=O)n2c1)N1CCC2(CC2)C1 | < 0.1 µM |
| Cn1cnnc1[C@@H](c1cccc(-n2cc3c(C(F)(F)F)cc(CNC4COC4)cn3c2=O)c1)C1CCC1 | < 0.1 µM |
| CO[C@H]1C[C@](c2cccc(-n3cc4c(C(F)(F)F)cc(CN5CCC[C@H](C)C5)cn4c3=O)c2)(c2nncn2C)C1 (single isomer, unassigned) | < 0.1 µM |
| CC(c1cc(C(F)(F)F)c2cn(-c3cccc([C@@H](c4nncn4C)C4CCC4)c3)c(=O)n2c1)N1CCC[C@H](C)C1 (single isomer, unassigned) [Compound 191] | 0.301 to 1 µM |
| C[C@H]1CCCN(Cc2cc(C(F)(F)F)c3cn(-c4cccc(N(C)Cc5nncn5C)c4)c(=O)n3c2)C1 | 3 to 10 µM |
| CC(C)CN(C)Cc1cc(C(F)(F)F)c2cn(-c3cccc([C@H](c4nncn4C)C4CCC4)c3)c(=O)n2c1 | < 0.1 µM |
| Cn1cnnc1CC1(c2cccc(-n3cc4c(C(F)(F)F)cc(C(C)(C)O)cn4c3=O)c2)COC1 | 1 to 3 µM |
| Cc1c[nH]nc1[C@H](c1cccc(-n2cc3c(C(F)(F)F)cc(CN4CCO[C@H](C)C4)cn3c2=O)c1)C1CCC1 | 3 to 10 µM |
| Cn1cnnc1[C@@H](c1cccc(-n2cc3c(C(F)(F)F)cc(CN4CCC5(CC5)C4)cn3c2=O)c1)C1CCC1 (single isomer, unassigned) | < 0.1 µM |
| CC1CN(Cc2cc(C(F)(F)F)c3cn(-c4cccc([C@H](c5nncn5C)C5CCC5)c4)c(=O)n3c2)CCC1(F)F (single isomer, unassigned) [Compound 172] | < 0.1 µM |

IN: # lookup: IC50 of CC1CN(Cc2cc(C(F)(F)F)c3cn(-c4cccc([C@H](c5nncn5C)C5CCC5)c4)c(=O)n3c2)CCC1(F)F (single isomer, unassigned) [Compound 171]
OUT: < 0.1 µM

IN: # lookup: IC50 of `C[C@@H]1CN(Cc2cc(C(F)(F)F)c3cn(-c4cccc(C5(Cc6nncn6C)COC5)c4)c(=O)n3c2)CCO1`
OUT: < 0.1 µM

====

# system-tested: CBL-B (Homo sapiens, UniProt Q13191)
# Construct: GST
# assay-remarks: CBL-B TR-FRET IC50 screening (E1/E2 ubiquitination, Biotin-Ubiquitin, Anti GST-Tb donor / Streptavidin-d2 acceptor)
# Type: biochemical
# condition-summary: CBL-B 10 nM final; 11-point titration from 100 uM; binned A-F; read-out: CBL-B TR-FRET activity IC50
result-type: IC50

The examples below pair each entry with its known result.
| molecule | IC50 |
| --- | --- |
| Cn1cnnc1[C@@H](c1cccc(-n2cc3c(C(F)(F)F)cc(CN4CCc5scnc5C4)cn3c2=O)c1)C1CCC1 [Compound 315] | < 100 nM |
| C[C@H]1CCCN(Cc2cc(C(F)(F)F)c3cn(-c4cccc(C5(c6nncn6C)CCC5)c4)c(=O)n3c2)C1 [Compound 341] | < 100 nM |
| C[C@H]1CCCN(Cc2cc(C(F)(F)F)c3cn(-c4cccc([C@H](c5nncn5C)C5CCOCC5)c4)c(=O)n3c2)C1 (single isomer, unassigned) [Compound 358] | > 10000 nM |
| Cn1cnnc1[C@@H](c1cccc(-n2cc3c(C(F)(F)F)cc(CN4CCC(C)(F)CC4)cn3c2=O)c1)C1CCC1 (single isomer, unassigned) [Compound 161] | < 100 nM |
| Cn1cnnc1CC1(c2cccc(-n3cc4c(C(F)(F)F)cccn4c3=O)c2)COC1 [Compound 9] | 100 to 300 nM |

IN: # lookup: IC50 of Cn1cnnc1CC1(c2cccc(-n3cc4c(C(F)(F)F)cc(CN5CC[C@H](F)C5)cn4c3=O)c2)COC1 [Compound 14]
OUT: < 100 nM

IN: # lookup: IC50 of C[C@H]1CCN(Cc2cc(C(F)(F)F)c3cn(-c4cccc([C@H](c5nncn5C)C5CCC5)c4)c(=O)n3c2)C1 [Compound 247]
OUT: < 100 nM

IN: # lookup: IC50 of Cn1cnnc1CC1(c2cccc(-n3cc4c(C(F)(F)F)cc(CN5CC6(CC6)C5)cn4c3=O)c2)COC1 [Compound 21]
OUT: < 100 nM

Data provenance: patent US20240228482A1
